Give measured %Inh for each item. Keep answers brief.
test system: TEC; settings: concentration: 1 μM, replicates: in singlicate; n = 1;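 further: KINOMEscan kinase panel screen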
Numbers only, in %.

[[record]]
molecule = "N#CC1(c2cccc(C(=O)Nc3cccc(Oc4ccc5nc(NC(=O)C6CC6)sc5n4)c3)c2)CC1"
outcomemeasure = "%Inh"
recordedvalue = 0

[[record]]
molecule = "CN(c1ccc2c(c1)nc(NCc1ccccc1)n2C)c1ccnc(Nc2ccc(CS(C)(=O)=O)cc2)n1.Cl"
outcomemeasure = "%Inh"
recordedvalue = 0

[[record]]
molecule = "CN(C)c1ncnc2nc[nH]c12"
outcomemeasure = "%Inh"
recordedvalue = 0

[[record]]
molecule = "COc1ccc(NC(=O)c2ccoc2)cc1-c1ccc(C(=O)NCC2CC2)cc1"
outcomemeasure = "%Inh"
recordedvalue = 0

[[record]]
molecule = "Cc1cccc(Nc2nc(N[C@H]3CCCC[C@H]3N)ncc2C(N)=O)c1.Cl"
outcomemeasure = "%Inh"
recordedvalue = 23


// batch mode: one %Inh value per listed entry
1. COc1cccc(NC(=O)NCCNc2ccnc(Nc3ccc(F)cc3)n2)c1
2. NCCC(NC(=O)c1cc(Br)c(-c2ccnc3[nH]ccc23)s1)c1ccccc1.O=C(O)C(F)(F)F.O=C(O)C(F)(F)F (stereo not shown)

[0, 0]

Each recorded value in this set is attributed to paper PMC5540273.
